Exercise: for every item that follows, state its recorded AUC.
# Assay type: in vivo, healthy subjects
# settings: human, plasma, oral, 200 mg, AUCtau, steady state; sacubitril/valsartan 200 mg twice daily alone; mean (SD)
Numbers only, in ng·h/mL.

Some solved entries appear below for comparison.
Q: Indicate its recorded AUC; the compound in question is CCOC(=O)[C@H](C)C[C@@H](Cc1ccc(-c2ccccc2)cc1)NC(=O)CCC(=O)O [Sacubitril, sacubitril]
Ans: 2330

Q: Tell me its AUC given C[C@H](C[C@@H](Cc1ccc(-c2ccccc2)cc1)NC(=O)CCC(=O)O)C(=O)O [Sacubitrilat, sacubitrilat] as the entry.
Ans: 79600

Proceed to the following item.
Q: For the compound CCCCC(=O)N(Cc1ccc(-c2ccccc2-c2nnn[nH]2)cc1)[C@H](C(=O)O)C(C)C [Valsartan, valsartan] , give its reported AUC.
Ans: 18900
